These data points were gathered from PubChem BioAssay.

Experiment: CRL1545 cell growth, single agent and combined, cisplatin and BGB IC20 combos (AID 1671464);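 further: cells exposed to compound for 96 hours before readout; 0% = vehicle DMSO and 100% = high DMSO killing control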
Conditions: CRL1545 osteosarcoma cells, measured here: with BGB IC20 combination, at 0.5 µM, stronger effect = higher value
# if value of inhibition reaches -10%, tag Criterion met; if it stays below, tag Criterion not met

>>> assigned_category("O=C(O)CCCCCCCC(=O)O")
"Criterion not met"
>>> assigned_category("O=c1c(O)c(-c2ccc(O)c(O)c2)oc2cc(O)cc(O)c12")
"Criterion not met"
>>> assigned_category("Nc1nc2c(ncn2COC(CO)CO)c(=O)[nH]1")
"Criterion met"
>>> assigned_category("O=NN(CCCl)C(=O)NCCCl")
"Criterion not met"
>>> assigned_category("Cc1nc2ccc(CN(C)c3ccc(C(=O)N[C@@H](CCC(=O)O)C(=O)O)s3)cc2c(=O)[nH]1")
"Criterion met"
>>> assigned_category("CCN1CCN(c2cc3c(cc2F)c(=O)c(C(=O)O)cn3C2CC2)CC1")
"Criterion met"

====

Test: EMT-state selective cytotoxicity in co-culture – imaging, PC-3E GFP, TEM4-18 mCherry, primary screen (AID 1345086);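 further: cells exposed to compound for 72 h before imaging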
Details: PC-3E GFP / TEM4-18 mCherry co-culture, imaging cell counts; measured here: epithelial PC-3E GFP cell survival; at 1 µM
measured metric: normalised cell number

>>> result("C#CCN[C@@H]1CCc2ccccc21")
0.98
>>> result("O=C(O)CN1C(=O)c2cccc3cccc(c23)C1=O")
1
>>> result("CC(=O)Nc1ccc(S(=O)(=O)Nc2ccc([N+](=O)[O-])cc2)cc1")
1.34
>>> result("Oc1cccc2[nH]ccc12")
1.31
>>> result("Cc1cc(C)nc(NS(=O)(=O)c2ccc(N)cc2)n1")
1.02
>>> result("COc1ccc(C(=O)CC(=O)c2ccc(C(C)(C)C)cc2)cc1")
0.9
>>> result("Cc1cc2cc3c(C)cc(=O)oc3c(C)c2o1")
1.05
>>> result("O=C(O)c1ccccc1O")
0.92
>>> result("CCOC(=O)OC(C)OC1=C(C(=O)Nc2ccccn2)N(C)S(=O)(=O)c2ccccc21 (stereo unspecified)")
0.84
>>> result("NCCS")
0.91
>>> result("CCCCOc1ccc(OCCCN2CCOCC2)cc1")
1.15
>>> result("CC(C(=O)O)c1ccc(C(=O)c2cccs2)cc1 (stereo unspecified)")
0.96
>>> result("COc1ccc(C(=O)c2ccccc2O)c(O)c1")
1.28
>>> result("CN(C/C=C/C#CC(C)(C)C)Cc1cccc2ccccc12")
1.32
>>> result("Cc1c(NC(C)C)c(=O)n(-c2ccccc2)n1C")
0.91
>>> result("Nc1nc2c(ncn2COC(CO)CO)c(=O)[nH]1")
1.04
>>> result("Cc1ccc(C(C)C)cc2c(C)ccc1-2")
1.25
>>> result("O=C(O)CCCCCCCC(=O)O")
1.08
>>> result("C/C=C/c1ccc(OC)cc1")
1.08
>>> result("NS(=O)(=O)c1cc(C(=O)O)c(NCc2ccco2)cc1Cl")
1.05
>>> result("CO[C@@]1(NC(=O)C(C(=O)O)c2ccc(O)cc2)C(=O)N2C(C(=O)O)=C(CSc3nnnn3C)CO[C@@H]21 (stereo partly specified)")
1.2
>>> result("C/C=C1\\[C@H]2C=C(C)C[C@]1(N)c1ccc(=O)[nH]c1C2")
0.97
>>> result("CSc1ccc2c(c1)C(N1CCN(C)CC1)Cc1ccccc1S2 (stereo unspecified)")
0.72
>>> result("COc1cc(C(=O)NCc2ccc(OCCN(C)C)cc2)cc(OC)c1OC")
1.34
>>> result("CC(Cc1cccc(C(F)(F)F)c1)NCCOC(=O)c1ccccc1 (stereo unspecified)")
1.26
>>> result("Nc1c(Br)cc(Br)cc1CNC1CCC(O)CC1 (stereo unspecified)")
1.16
>>> result("C=CCSCC1Nc2cc(Cl)c(S(N)(=O)=O)cc2S(=O)(=O)N1 (stereo unspecified)")
1.09
>>> result("CC(C)N=C(N)/N=C(\\N)Nc1ccc(Cl)cc1")
1.11
>>> result("Nc1ccc(S(=O)(=O)NC(=O)c2ccccc2)cc1")
0.9
>>> result("CN(C)CCC(c1ccccc1)c1ccccn1 (stereo unspecified)")
0.86
>>> result("O=C1c2ccccc2C(=O)c2c1ccc(O)c2O")
1.05
>>> result("COc1ccc2c(c1)c(CC(=O)OCC(=O)O)c(C)n2C(=O)c1ccc(Cl)cc1")
1.18
>>> result("Cc1c(N(C)CS(=O)(=O)O)c(=O)n(-c2ccccc2)n1C")
1.23
>>> result("CC(=O)Nc1ccccc1")
1.06
>>> result("COc1cc(OC)c(C(=O)CCCN2CCCC2)c(OC)c1")
1.24
>>> result("CCN(CC)CCOC(=O)C(c1ccccc1)c1ccccc1")
1.02
>>> result("NC(=O)c1ncn([C@@H]2O[C@H](CO)[C@@H](O)[C@H]2O)n1")
1.31
>>> result("Cc1nc(-c2ccc(OCC(C)C)c(C#N)c2)sc1C(=O)O")
1.08
>>> result("CCCOc1ccccc1-c1nc2n[nH]nc2c(=O)[nH]1")
1.02
>>> result("CC1CCc2cc(F)cc3c(=O)c(C(=O)O)cn1c23 (stereo unspecified)")
0.89
>>> result("CNS(=O)(=O)Cc1ccc2[nH]cc(CCN(C)C)c2c1")
1.07
>>> result("Nc1nc(N)nc(-c2cc(Cl)ccc2Cl)n1")
1.08
>>> result("C=Cc1c(C)c2cc3[nH]c(cc4nc(cc5nc(cc1[nH]2)C(C)=C5CCC(=O)O)C(CCC(=O)O)=C4C)c(C)c3C=C")
0.8
>>> result("CN(C)CCOC(=O)COc1ccc(Cl)cc1")
0.98
>>> result("CCCCNc1c(C(=O)OCC)c(C)nc2c1cnn2CC")
0.85
>>> result("Oc1cc(O)c2c(c1)O[C@H](c1ccc(O)c(O)c1)[C@H](O)C2")
1.07
>>> result("Cc1ncc([N+](=O)[O-])n1CCO")
0.93
>>> result("CC(C)NCC(O)c1ccc2ccccc2c1 (stereo unspecified)")
1.05
>>> result("Cc1oncc1C(=O)Nc1ccc(C(F)(F)F)cc1")
1.34
>>> result("CN(C)CCCN1c2ccccc2Sc2ccc(C(F)(F)F)cc21")
0.93
>>> result("NC(=O)c1ccccc1O")
0.98

====

Assay: growth inhibition, single agents and combos, HD-MB03, cell-based, BGB or cisplatin IC20 combos, synergistic combos for chromothripsis tumors (AID 1671455);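 further: 0% = vehicle DMSO and 100% = high DMSO as cytotoxic control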
Settings: HD-MB03 medulloblastoma cells, measured here: combo with BGB at IC20, at 0.5 µM, stronger effect = higher value
measured metric: inhibition (%)

>>> result("O=c1c(O)c(-c2ccc(O)c(O)c2)oc2cc(O)cc(O)c12")
-5.54
>>> result("CN(C)c1ccc(C(=C2C=CC(=[N+](C)C)C=C2)c2ccc(N(C)C)cc2)cc1")
60.7
>>> result("O=c1oc2c(O)c(O)cc3c(=O)oc4c(O)c(O)cc1c4c23")
-0.451
>>> result("C[C@H]1COc2c(C3(N)CC3)c(F)cc3c(=O)c(C(=O)O)cn1c23")
-6
>>> result("CCN1CCN(c2cc3c(cc2F)c(=O)c(C(=O)O)cn3C2CC2)CC1")
-3.92
>>> result("CCn1cc(C(=O)O)c(=O)c2cc3c(cc21)OCO3")
-0.045
>>> result("O=C(O)CCCCCCCC(=O)O")
-13.8
>>> result("Cc1oncc1C(=O)Nc1ccc(C(F)(F)F)cc1")
-13.1

====

Experiment: GLP1 release stimulators, primary, NCI-H716, NPC library (AID 1117341)
Conditions: NCI-H716 cells, at 10 µM, stronger effect = higher value
measured metric: GLP1 secretion stimulation (%)

>>> result("CCCN[C@H]1CCc2nc(N)sc2C1")
2.6
>>> result("Cc1cnc(C(=O)O)c[n+]1[O-]")
-4.7
>>> result("CN1C(C)(C)CCCC1(C)C")
-2.3
>>> result("O=C(O)CN1C(=O)c2cccc3cccc(c23)C1=O")
1.6
>>> result("C[C@]12CCC(=O)C=C1CC[C@@H]1[C@@H]2[C@@H](O)C[C@@]2(C)[C@H]1CC[C@]2(O)C(=O)COP(=O)(O)O")
-1
>>> result("CC(Cc1cccc(C(F)(F)F)c1)NCCOC(=O)c1ccccc1 (stereo not given)")
2.6
>>> result("CN1CCC(=C2c3ccccc3CCc3sccc32)CC1")
5.3
>>> result("COc1cc(NS(=O)(=O)c2ccc(N)cc2)ncn1")
-4.1
>>> result("CC(=O)OCC(=O)NCCCOc1cccc(CN2CCCCC2)c1")
-0.3
>>> result("CC(=O)Oc1c(C)c(C)c2c(c1C)CC[C@@](C)(CCC[C@H](C)CCC[C@H](C)CCCC(C)C)O2")
1.2
>>> result("O=P(O)(O)C(O)(Cc1cccnc1)P(=O)(O)O")
0.1
>>> result("O=C(O)c1ccccc1C(=O)Nc1ccc(S(=O)(=O)Nc2nccs2)cc1")
1.4
>>> result("CCOc1ccc2nc3cc(N)ccc3c(N)c2c1")
8.6
>>> result("Oc1c(Cl)cc(Cl)c(Cl)c1Cc1c(O)c(Cl)cc(Cl)c1Cl")
17.4
>>> result("C[C@@](Cc1ccc(O)c(O)c1)(NN)C(=O)O")
-1.3
>>> result("Cc1ccc(S(=O)(=O)NC(=O)NN2CC3CCCC3C2)cc1 (stereo not given)")
0.8
>>> result("CNC[C@H](O)[C@@H](O)[C@H](O)[C@H](O)CO")
10.1
>>> result("CCCCC(CC)CN=C(N)NC(N)=NCCCCCCN=C(N)NC(N)=NCC(CC)CCCC (stereo not given)")
0
>>> result("O=C(OCC(O)CO)c1ccccc1Nc1ccnc2cc(Cl)ccc12 (stereo not given)")
-2.3
>>> result("NC(CO)C(=O)NNCc1ccc(O)c(O)c1O (stereo not given)")
8.5
>>> result("CN1CCN(C2=Nc3cc(F)ccc3Cc3ccccc32)CC1")
8
>>> result("CC1=CC(=O)c2ccccc2C1=O")
-6
>>> result("CN(C)CCCN1c2ccccc2Sc2ccccc21")
9.2
>>> result("N=C(N)N")
-1.2
>>> result("Cc1ccsc1/C=C/C1=NCCCN1C")
-0.1
